Value source: patent US7098336B2

- measured_on: full length human FXR (Homo sapiens, UniProt Q96RI1)
- Sequence (P19793 whole entry partner, one chain of several): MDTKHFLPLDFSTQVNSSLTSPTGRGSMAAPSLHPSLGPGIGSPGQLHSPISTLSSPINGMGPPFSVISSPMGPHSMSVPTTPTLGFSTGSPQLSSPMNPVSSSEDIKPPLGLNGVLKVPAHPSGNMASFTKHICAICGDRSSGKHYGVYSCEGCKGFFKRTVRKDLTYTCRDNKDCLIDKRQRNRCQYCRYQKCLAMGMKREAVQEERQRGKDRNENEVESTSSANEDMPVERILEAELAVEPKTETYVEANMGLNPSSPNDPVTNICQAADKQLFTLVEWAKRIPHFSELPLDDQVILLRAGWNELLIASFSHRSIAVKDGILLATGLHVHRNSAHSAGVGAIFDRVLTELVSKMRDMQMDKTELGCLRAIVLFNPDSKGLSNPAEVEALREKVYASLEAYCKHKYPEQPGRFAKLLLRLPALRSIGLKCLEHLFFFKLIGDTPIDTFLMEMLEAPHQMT
- method_notes: Cellular gene reporter assay in stable HEK293-FXR reporter cell line (luciferase)
- applied_conditions: HEK293-FXR reporter cells, 16 hours incubation, FIG. 3
measurement_type: pEC50
Give bare numbers, as −log10 of the molar value.

Problem: Write pEC50 of COc1ccccc1-c1cc(-c2ccccc2O)nc(NC[C@H]2CC[C@H](C(=O)O)CC2)n1 [LN0000006691] ; system used: full length human FXR (Homo sapiens, UniProt Q96RI1)
Solution: 5.89

---

- measured_on: human FXR alpha (NR1H4) (Homo sapiens, UniProt Q96RI1)
- Sequence (Q96RI1 1-472 isoform Q96RI1-2): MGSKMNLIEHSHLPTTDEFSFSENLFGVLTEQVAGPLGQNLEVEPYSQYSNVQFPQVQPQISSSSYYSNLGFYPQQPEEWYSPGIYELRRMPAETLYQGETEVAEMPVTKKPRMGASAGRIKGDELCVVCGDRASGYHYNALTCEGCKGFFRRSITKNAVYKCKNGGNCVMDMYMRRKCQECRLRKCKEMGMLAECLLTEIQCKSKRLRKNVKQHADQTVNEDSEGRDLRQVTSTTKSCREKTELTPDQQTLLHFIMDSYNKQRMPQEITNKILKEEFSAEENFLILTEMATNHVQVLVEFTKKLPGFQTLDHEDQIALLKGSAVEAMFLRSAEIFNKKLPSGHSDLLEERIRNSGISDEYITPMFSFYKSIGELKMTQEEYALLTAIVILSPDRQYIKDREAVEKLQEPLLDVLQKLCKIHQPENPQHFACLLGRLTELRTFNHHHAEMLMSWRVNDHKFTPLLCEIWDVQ
- method_notes: In vitro LANCE TR-FRET screening for FXR binding to coactivator TIF2
- Assay type: biochemical
- Parameters: EC50 AVG; other: relative to CDCA control agonist; fused on or other part: GST at the N-terminus (pDest15)
- applied_conditions: established according to Example 1 (FRET); unit inferred, b76 prints 0.16 μM for the same value; read-out: EC50 AVG
measurement_type: EC50 (nM)
Numbers only, in nM.

1. COc1ccccc1-c1cc(-c2cc(C)ccc2O)nc(NCC2CCC(C(=O)O)CC2)n1 (stereo not drawn)
1090
2. O=C(O)C1CCC(CNc2nc(-c3ccccc3O)cc(-c3ccccc3F)n2)CC1 (stereo not drawn)
530

The record that follows has no EC50 shown yet.
Problem: Tell us which EC50 value is on record for O=C(O)C1CCC(CNc2nc(-c3cccs3)cc(-c3ccccc3O)n2)CC1 (stereo not drawn)
Solution: 1660
